Reference source for all entries: patent US20090156577A1

System: pathogenic bacteria
Test: MIC by microdilution broth method (NCCLS M7-A4), in vitro antibacterial activity
Assay type: cell-based
Details: Staphylococcus aureus, Organism A: Staphylococcus aureus OC4172; read-out: MIC
# MIC annotations
A number alone suffices; assume µg/mL.

- CON=C1CN(c2nc3c(cc2F)c(=O)c(C(=O)O)cn3C2CC2)CCC1=CCN [Compound 61]: 0.12

Report MIC for C[C@H]1COc2c(N3CC(=C(Cl)CO)C3)c(F)cc3c(=O)c(C(=O)O)cn1c23 [Compound 362] please. 0.03

---

# log10(MIC) annotations
Test system: pathogenic bacteria
Experiment: MIC by microdilution broth method (NCCLS M7-A4), in vitro antibacterial activity
Type: cell-based
Settings: Streptococcus pneumoniae, Organism B: fluoroquinolone-resistant clinical isolate of Streptococcus pneumoniae (QRDR amino acid substitutions)
Structures can show the parent of a compound that is named as a salt.
Parameter value (number): base-10 log of MIC in µg/mL.

- NCC=C1CCN(c2nc3c(cc2F)c(=O)c(C(=O)O)cn3C2CC2)CC1: 0.90
- CNCC(Cl)=C1CN(c2cc3c(cc2F)c(=O)c(C(=O)O)cn3C2CC2)C1 [Compound 431, trifluoroacetic acid salt]: 0.60
- COc1c(N2CCC(=C(Cl)CN3CCOCC3)CC2)c(F)cc2c(=O)c(C(=O)O)cn(C3CC3)c12: 0.90
- COc1c(N2CCC/C(=C(/F)CN)C2)c(F)cc2c(=O)c(C(=O)O)cn([C@@H]3C[C@@H]3F)c12: 0.90
- CNCC=C1CCN(c2c(F)cc3c(=O)c(C(=O)O)cn(C4CC4)c3c2OC)CC1 [Compound 221, Trifluoroacetic Acid Salt]: 0.30
- O=C(O)c1cn(C2CC2)c2cc(N3CCC(=CCO)CC3)c(F)cc2c1=O: 1.51
- CNCC(C)=C1CCN(c2cc3c(cc2F)c(=O)c(C(=O)O)cn3C2CC2)CC1: 0.90
- NC/C(F)=C1\CCCN(c2cc3c(cc2F)c(=O)c(C(=O)O)cn3C2CC2)C1: 0.90

Form: Entry = NCC(F)=C1CN(c2c(F)cc3c(=O)c(C(=O)O)cn(C4CC4)c3c2OC(F)F)C1 | System = pathogenic bacteria | log10(MIC) = ____ 0.30

---

System: pathogenic bacteria
Test: MIC by microdilution broth method (NCCLS M7-A4), in vitro antibacterial activity
Format: cell-based
Details: Staphylococcus aureus, Organism A: Staphylococcus aureus OC4172; read-out: MIC
recorded_endpoint: MIC

Answered examples (3):
- NC/C(F)=C1\COCCN(c2nc3c(cc2F)c(=O)c(C(=O)O)cn3C2CC2)C1: 1 µg/mL
- C[C@H]1COc2c(N3CC(=C(F)CN)C3)c(F)cc3c(=O)c(C(=O)O)cn1c23: ≤ 0.015 µg/mL
- CN(C)CCNCC(Cl)=C1CCN(c2nc3c(cc2F)c(=O)c(C(=O)O)cn3C2CC2)CC1: 1 µg/mL

Report MIC for COc1c(N2CCC(=C(F)CN)C(C)(C)C2)c(F)cc2c(=O)c(C(=O)O)cn(C3CC3)c12 please. 1 µg/mL

Report MIC for NCC(Cl)=C1CCN(c2nc3c(cc2F)c(=O)c(C(=O)O)cn3C2CC2)CC1 please. 0.06 µg/mL

Report MIC for COc1c(N2CCC/C(=C(/F)CN)C2)c(F)cc2c(=O)c(C(=O)O)cn([C@@H]3C[C@@H]3F)c12 please. 0.06 µg/mL

Report MIC for C[C@H]1COc2c(N3CCC/C(=C(/F)CN)C3)c(F)cc3c(=O)c(C(=O)O)cn1c23 please. 0.5 µg/mL

Report MIC for CC(C)NCC(Cl)=C1CCN(c2nc3c(cc2F)c(=O)c(C(=O)O)cn3C2CC2)CC1 please. 0.5 µg/mL

Report MIC for NCC(F)=C1CN(c2cc3c(cc2F)c(=O)c(C(=O)O)cn3C2CC2)C1 please. ≤ 0.015 µg/mL

Report MIC for NCC(Cl)=C1CCN(c2c(F)cc3c(=O)c(C(=O)O)cn(C4CC4)c3c2OCF)CC1 please. 2 µg/mL
